Target: recombinant human DPP7 (Homo sapiens, UniProt Q9UHL4)
Construct: purchased R&D Systems
Assay: DPP7 inhibition, fluorogenic substrate Lys-Pro-AMC
Assay type: biochemical
READOUT LABEL: log10 IC50 (log10 of the value in nM)
# values: log10(IC50), units nM

MOLECULE SMILES | log10 IC50
COc1ccc(NC2CCN(CC(=O)N3C[C@@H](F)C[C@H]3C#N)CC2)c2cccnc12 | 3.01
N#C[C@@H]1CCCN1C(=O)CN1CCC(Oc2cccc3ncccc23)CC1 | 3.37
N#C[C@@H]1CCCN1C(=O)CN1CC[C@H](Oc2ncnc3sccc23)C1 | 3.57
N#C[C@@H]1CC(F)(F)CN1C(=O)CN1CC[C@H](Nc2cccc3ccsc23)C1 | 1.88
N#C[C@@H]1CCCN1C(=O)CN1CC[C@H](NC(=O)c2csc3ccccc23)C1 | 3.62
N#C[C@@H]1CC(F)(F)CN1C(=O)CN1CC[C@H](Nc2ccc3ccccc3c2)C1 | 2.29
N#C[C@@H]1CCCN1C(=O)CN1CC[C@H](Oc2ccnc3ccccc23)C1 | 3.06
CN(c1ccc2ncccc2c1)[C@@H]1CCN(CC(=O)N2CCC[C@H]2C#N)C1 | 3.15

The reported value for COc1cc2nccc(OC3CCN(CC(=O)N4C[C@@H](F)C[C@H]4C#N)CC3)c2cc1OC in terms of log10 IC50 is 2.96

In plain terms, N#C[C@@H]1CCCN1C(=O)CN1CC[C@H](NC(=O)c2cc3ccccc3s2)C1 has a documented log10 IC50 of 3.55

---

Molecular target: Recombinant human FAP (Homo sapiens, UniProt Q12884)
Construct: purchased R&D systems
Sequence (Q12884 whole entry): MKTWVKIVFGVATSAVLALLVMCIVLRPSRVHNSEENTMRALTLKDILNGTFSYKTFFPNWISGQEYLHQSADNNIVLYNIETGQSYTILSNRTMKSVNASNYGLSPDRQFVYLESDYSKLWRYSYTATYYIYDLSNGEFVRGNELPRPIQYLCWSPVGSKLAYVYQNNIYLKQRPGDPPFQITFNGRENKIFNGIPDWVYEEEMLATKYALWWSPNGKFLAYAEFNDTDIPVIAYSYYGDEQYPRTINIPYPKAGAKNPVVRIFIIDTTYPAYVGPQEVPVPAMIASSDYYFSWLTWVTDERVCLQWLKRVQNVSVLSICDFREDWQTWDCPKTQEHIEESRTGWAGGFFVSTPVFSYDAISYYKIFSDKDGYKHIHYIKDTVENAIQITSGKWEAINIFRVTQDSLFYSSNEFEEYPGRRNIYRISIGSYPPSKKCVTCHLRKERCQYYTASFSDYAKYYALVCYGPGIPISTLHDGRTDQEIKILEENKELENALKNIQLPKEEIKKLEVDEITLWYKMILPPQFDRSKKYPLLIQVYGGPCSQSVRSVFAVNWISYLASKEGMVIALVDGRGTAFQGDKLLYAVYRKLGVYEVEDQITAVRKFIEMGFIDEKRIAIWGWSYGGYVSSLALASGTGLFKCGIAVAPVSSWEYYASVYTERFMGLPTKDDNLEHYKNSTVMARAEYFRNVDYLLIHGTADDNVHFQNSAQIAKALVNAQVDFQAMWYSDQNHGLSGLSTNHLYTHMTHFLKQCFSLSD
Test: FAP inhibition, fluorogenic substrate Z-Gly-Pro-AMC
Type: biochemical
Settings: 25° C., Z-Gly-Pro-AMC substrate
READOUT LABEL: log10 of IC50 (log10 of the value in nM)
Kindly note that the scale is log10 and the underlying IC50 is in nM.

Solved entries:
MOLECULE SMILES | log10 of IC50
N#C[C@@H]1CCCN1C(=O)CN1CC[C@H](NC(=O)c2cnc3ccccc3c2)C1 | 2.21
Cc1ccc2c(C(=O)N[C@H]3CCN(CC(=O)N4CCC[C@H]4C#N)C3)coc2c1 | 1.25
N#C[C@@H]1CCCN1C(=O)CN1CC[C@H](Nc2cncc3ccccc23)C1 | 0.76
N#C[C@@H]1CCCN1C(=O)CN1CC[C@H](NC(=O)c2cccc3occc23)C1 | 1.30
COc1ccc2nccc(OC3CCN(CC(=O)N4C[C@@H](F)C[C@H]4C#N)CC3)c2c1 | -0.11
N#C[C@@H]1CCCN1C(=O)CN1CC[C@H](Oc2ccnc3ccccc23)C1 | 1.33

So, N#C[C@@H]1CCCN1C(=O)CN1CC[C@H](Oc2ncnc3sccc23)C1 ? Its log10 of IC50 was 0.90

N#C[C@@H]1CC(F)(F)CN1C(=O)CN1CC[C@H](Nc2ccnc3ccccc23)C1 yielded log10 of IC50 of -0.34

Quick note, log10 of IC50 for N#C[C@@H]1CCCN1C(=O)CN1CC[C@H](Oc2ccc(Cl)c3cccnc23)C1 landed at 0.88

Reported log10 of IC50 ( N#C[C@@H]1CCCN1C(=O)CN1CC[C@H](Oc2cccc3ccccc23)C1 ) = 1.88

Field log10 of IC50 (entry N#C[C@@H]1CCCN1C(=O)CN1CC[C@H](Oc2ccnc3c(C(F)(F)F)cccc23)C1 ) reads 0.52

// sample N#C[C@@H]1CCCN1C(=O)CN1CC[C@@H](C(=O)Nc2cnc3ccccc3c2)C1 , its log10 of IC50 was 2.21

# log10 of IC50 of Cc1ccc2occ(C(=O)N[C@H]3CCN(CC(=O)N4CCC[C@H]4C#N)C3)c2c1 = 1.13

Kindly note the recorded log10 of IC50 for N#C[C@@H]1CCCN1C(=O)CN1CC[C@H](Oc2cccc3ncccc23)C1 , which is 0.74

CN(c1ccc2ncccc2c1)[C@@H]1CCN(CC(=O)N2CCC[C@H]2C#N)C1 has a reported log10 of IC50 of 1.20
